assay: Cytotoxicity against human MCF-10A cells assessed as cell viability incubated for 96 hrs by MTT assay; type: toxicity, cell-based; set-up: concentration or dose not given beside the values; conditions: read-out: Activity
readout.type: viability at 96 h (%)
Please state the figure in %; there is no need to write the unit.

Request: Item under review: "CCN(CC)CCO/N=C1\C(=C\c2ccc(OC)c(OC)c2Cl)CCc2ccc([N+](=O)[O-])cc21" . Reported viability at 96 h?
Result: 94

Request: Can you look up the measured viability at 96 h of "CCN(CC)CCON=C1/C(=C/c2cc(OC)c(OC)c(OC)c2Br)CN(C)C/C1=C\c1cc(OC)c(OC)c(OC)c1Br" for me?
Result: 95

Request: Reported viability at 96 h for "COc1cccc(/C=C2\CCC/C(=C\c3cccc(OC)c3Cl)C2=O)c1Cl" : what is it?
Result: 90

Request: Look up viability at 96 h: COc1cc(/C=C2\CC(C)c3ccccc3\C2=N\O)c(Br)c(OC)c1OC (stereo not given)
Result: 98

Request: Data request, read-out viability at 96 h, for COc1cc(/C=C2\CC(C(C)C)C/C(=C\c3cc(OC)c(OC)c(OC)c3Br)C2=O)c(Br)c(OC)c1OC (stereo not given)
Result: 89

Request: Returns the measured viability at 96 h for the input compound. Input: "COc1cc(/C=C2\CN(C)C/C(=C\c3cc(OC)c(OC)c(OC)c3Br)C2=NO)c(Br)c(OC)c1OC"
Result: 96

Request: Quick check: viability at 96 h of "COc1cc2c(cc1OC)C(=O)/C(=C/c1cc(OC)c(OC)c(OC)c1Br)CC2" ?
Result: 98

Request: Entry under review: "COc1ccc2c(c1)CC/C(=C\c1cc(OC)c(OC)c(OC)c1Br)C2=O" . Reported viability at 96 h?
Result: 90

Request: Request the reported viability at 96 h associated with "COc1cccc2c1CC/C(=C\c1ccc(OC)c(OC)c1Cl)C2=O"
Result: 95

Request: Requested read-out: viability at 96 h. Entry: "COc1cc2c(cc1OC)C(=O)/C(=C/c1ccc(OC)c(OC)c1Cl)CC2"
Result: 97

Request: // viability at 96 h lookup, key: "COc1cccc(/C=C2\COC/C(=C\c3cccc(OC)c3Cl)C2=O)c1Cl"
Result: 88

Request: For the compound shown here, COc1cc(/C=C2\CC(C)c3ccccc3C2=O)c(Br)c(OC)c1OC (stereo not given) , give the reported viability at 96 h.
Result: 92

Request: Looking for the measured viability at 96 h of "COc1cccc(/C=C2\CN(Cc3ccccc3)C/C(=C\c3cccc(OC)c3Cl)C2=O)c1Cl" , can you help?
Result: 89

Request: viability at 96 h lookup needed for "COc1cc(/C=C2\CCc3ccc([N+](=O)[O-])cc3\C2=N\O)c(Br)c(OC)c1OC" , thanks.
Result: 96

Request: I am curious: what viability at 96 h value has been reported for "COc1cc(/C=C2\CN(Cc3ccccc3)C/C(=C\c3cc(OC)c(OC)c(OC)c3Br)C2=O)c(Br)c(OC)c1OC" ?
Result: 91
